- test-system: E. coli Riboflavin Synthase (Escherichia coli)
- Sequence (P0AFU8 whole entry): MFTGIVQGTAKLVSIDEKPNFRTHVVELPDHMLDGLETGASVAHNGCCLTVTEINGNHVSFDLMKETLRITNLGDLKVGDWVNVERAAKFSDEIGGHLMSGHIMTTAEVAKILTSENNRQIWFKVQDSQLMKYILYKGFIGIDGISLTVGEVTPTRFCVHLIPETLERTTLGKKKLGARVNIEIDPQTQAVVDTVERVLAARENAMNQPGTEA
- assay-explanation: Riboflavin synthase kinetic inhibition assay
- Assay type: biochemical
- condition-set: recombinant E. coli RS; fit of the compound's data set; pH 7.0
Use 0.07 s⁻¹ as the dividing line for kcat (rate constant ES → E + P), with the line itself on the true side and lower values as false.

compound | assigned-category
O=c1[nH]c(/C=C/c2ccc3ccccc3c2)c([N+](=O)[O-])c(=O)[nH]1 [Compound 43] | false

Does the compound O=c1[nH]c(/C=C/C2C=Nc3ccccc32)c([N+](=O)[O-])c(=O)[nH]1 (stereo not drawn) [Compound 44] have recorded kcat (rate constant ES → E + P) that is 0.07 s⁻¹ or more?
false

# check: kcat (rate constant ES → E + P) of O=c1[nH]c(/C=C/c2cc(O)ccc2O)c([N+](=O)[O-])c(=O)[nH]1 [Compound 18] is greater than or equal to 0.07 s⁻¹
true

Decide: is the reported value of kcat (rate constant ES → E + P) for O=c1[nH]c(/C=C/c2cccc(O)c2O)c([N+](=O)[O-])c(=O)[nH]1 [Compound 17] equal to or greater than 0.07 s⁻¹?
true

Could you please find out whether O=c1[nH]c(/C=C/c2ccc[nH]2)c([N+](=O)[O-])c(=O)[nH]1 [Compound 40] has kcat (rate constant ES → E + P) that meets 0.07 s⁻¹ or exceeds it?
false

* * *

- test-system: UniProtKB Q9UUB1
- Sequence (Q9UUB1 1-159): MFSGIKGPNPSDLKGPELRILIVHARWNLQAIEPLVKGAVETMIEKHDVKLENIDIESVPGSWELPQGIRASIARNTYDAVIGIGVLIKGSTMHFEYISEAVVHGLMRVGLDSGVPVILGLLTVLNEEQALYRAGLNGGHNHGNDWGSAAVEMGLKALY
- assay-explanation: Lumazine synthase kinetic inhibition assay
- Format: biochemical
- condition-set: recombinant S. pombe LS; fit of the compound's data set; pH 7.0
In this section we review reported kcat (rate constant ES → E + P) values for a set of molecules.
State just the number; it will be interpreted in min⁻¹.

Take a look at these entries with their results.
molecule | kcat (rate constant ES → E + P), min⁻¹
O=C1OC(Cc2[nH]c(=O)[nH]c(=O)c2[N+](=O)[O-])c2ccccc21 (stereo not shown) | 1.12
O=c1[nH]c(/C=C/c2ccc[nH]2)c([N+](=O)[O-])c(=O)[nH]1 | 1.04
O=c1[nH]c(/C=C/c2cc(O)ccc2O)c([N+](=O)[O-])c(=O)[nH]1 | 1.47
COc1cc(/C=C/c2[nH]c(=O)[nH]c(=O)c2[N+](=O)[O-])cc(OC)c1OC | 1.40
COc1ccccc1/C=C/c1[nH]c(=O)[nH]c(=O)c1[N+](=O)[O-] | 1.71

Consider the molecule O=c1[nH]c(/C=C/c2ccc3ccccc3c2)c([N+](=O)[O-])c(=O)[nH]1 . State its measured kcat (rate constant ES → E + P).
2.58

Read off the recorded kcat (rate constant ES → E + P) for O=c1[nH]c(/C=C/c2cccc(O)c2O)c([N+](=O)[O-])c(=O)[nH]1
1.57

State its kcat (rate constant ES → E + P) for this molecule: COc1ccc(/C=C/c2[nH]c(=O)[nH]c(=O)c2[N+](=O)[O-])cc1O
1.41

Look up kcat (rate constant ES → E + P) of O=c1[nH]c(/C=C/c2ccc([N+](=O)[O-])cc2)c([N+](=O)[O-])c(=O)[nH]1 and report it.
1.30

Determine from records and report kcat (rate constant ES → E + P) for O=c1[nH]c(/C=C/c2ccccc2O)c([N+](=O)[O-])c(=O)[nH]1
1.38

Identify kcat (rate constant ES → E + P) associated with the molecule O=c1[nH]c(/C=C/c2cccc([N+](=O)[O-])c2)c([N+](=O)[O-])c(=O)[nH]1
1.14

Specify measured kcat (rate constant ES → E + P) for COc1cccc(/C=C/c2[nH]c(=O)[nH]c(=O)c2[N+](=O)[O-])c1F .
0.99

Identify measured kcat (rate constant ES → E + P) corresponding to COc1ccc([N+](=O)[O-])cc1/C=C/c1[nH]c(=O)[nH]c(=O)c1[N+](=O)[O-]
1.09

Write down kcat (rate constant ES → E + P) measured for item O=c1[nH]c(C=Cc2ccccc2)c([N+](=O)[O-])c(=O)[nH]1
2.2

Answer with reported kcat (rate constant ES → E + P) of O=C(O)c1ccc(/C=C/c2[nH]c(=O)[nH]c(=O)c2[N+](=O)[O-])cc1
1.39

Indicate its recorded kcat (rate constant ES → E + P); the molecule in question is O=C(O)c1ccc(/C=C/c2[nH]c(=O)[nH]c(=O)c2[N+](=O)[O-])c(O)c1
1.64
